Assay System: HCV NS3/4A protease (Hepatitis C virus genotype 1a (isolate H77) (HCV), UniProt P27958)
Sequence (P27958 1027-1657): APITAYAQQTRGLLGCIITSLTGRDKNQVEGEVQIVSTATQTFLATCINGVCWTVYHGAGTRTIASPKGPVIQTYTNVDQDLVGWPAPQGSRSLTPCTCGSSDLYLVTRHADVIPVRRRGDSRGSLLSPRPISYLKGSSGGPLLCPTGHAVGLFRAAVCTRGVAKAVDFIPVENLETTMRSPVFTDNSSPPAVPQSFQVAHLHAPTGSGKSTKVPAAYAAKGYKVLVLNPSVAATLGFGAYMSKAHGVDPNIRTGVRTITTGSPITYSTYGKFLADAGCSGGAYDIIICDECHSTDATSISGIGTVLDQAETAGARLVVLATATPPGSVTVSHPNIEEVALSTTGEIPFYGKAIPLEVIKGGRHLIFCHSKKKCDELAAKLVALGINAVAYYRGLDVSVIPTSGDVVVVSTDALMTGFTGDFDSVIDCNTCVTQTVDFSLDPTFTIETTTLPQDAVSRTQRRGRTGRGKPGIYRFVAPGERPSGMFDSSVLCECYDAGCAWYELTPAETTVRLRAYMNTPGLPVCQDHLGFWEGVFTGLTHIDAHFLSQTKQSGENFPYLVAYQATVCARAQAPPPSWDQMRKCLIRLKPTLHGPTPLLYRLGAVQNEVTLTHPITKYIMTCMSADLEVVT
Assay Remarks: Inhibition assay (enzymatic assay) of full-length NS3 protease with NS4A cofactor
Type: biochemical
Test Conditions: full-length NS3 protease 1 nM, 25 μM NS4A cofactor, depsipeptide substrate, competitive inhibition model; read-out: Ki (μM) Enzymatic assay
Method: [Landro, 1997 #Biochem 36 9340-9348]. […] The solutions were stored at −20° C. between measurements. [Liu, 1999 Analytical Biochemistry 267 331-335].
Reported Metric: Ki
Respond with a number, then the unit of measure.

[[record]]
compound = "COc1ccc2c(O[C@@H]3C[C@H]4C(=O)N[C@]5(C(=O)NS(=O)(=O)C6(C)CC6)C[C@H]5/C=C\\CCCCN(C)C(=O)[C@@H]4C3)cc(-c3nc(C(C)C)cs3)nc2c1Cl"
observed_result = "0.3 nM"

[[record]]
compound = "COc1ccc2c(O[C@@H]3C[C@H]4C(=O)N[C@]5(C(=O)NS(=O)(=O)C6CC6)C[C@H]5/C=C\\CCCCCNC(=O)N4C3)cc(-c3nc(C(C)C)cs3)nc2c1C (stereo in doubt)"
observed_result = "0.05 nM"


Read the next record carefully.
# Ki (compound: COc1ccc2c(O[C@@H]3C[C@H]4C(=O)N[C@]5(C(=O)NS(=O)(=O)C6CC6)C[C@H]5/C=C\CCCCCNC(=O)N4C3)cc(-c3nc(C(C)C)cs3)nc2c1Cl (stereo in doubt) ) is 0.1 nM
